- MEASURED_TARGET: organic anion transporting polypeptide 1B1 (OATP1B1) (Homo sapiens (Human), UniProt Q9Y6L6)
- Sequence (Q9Y6L6 whole entry): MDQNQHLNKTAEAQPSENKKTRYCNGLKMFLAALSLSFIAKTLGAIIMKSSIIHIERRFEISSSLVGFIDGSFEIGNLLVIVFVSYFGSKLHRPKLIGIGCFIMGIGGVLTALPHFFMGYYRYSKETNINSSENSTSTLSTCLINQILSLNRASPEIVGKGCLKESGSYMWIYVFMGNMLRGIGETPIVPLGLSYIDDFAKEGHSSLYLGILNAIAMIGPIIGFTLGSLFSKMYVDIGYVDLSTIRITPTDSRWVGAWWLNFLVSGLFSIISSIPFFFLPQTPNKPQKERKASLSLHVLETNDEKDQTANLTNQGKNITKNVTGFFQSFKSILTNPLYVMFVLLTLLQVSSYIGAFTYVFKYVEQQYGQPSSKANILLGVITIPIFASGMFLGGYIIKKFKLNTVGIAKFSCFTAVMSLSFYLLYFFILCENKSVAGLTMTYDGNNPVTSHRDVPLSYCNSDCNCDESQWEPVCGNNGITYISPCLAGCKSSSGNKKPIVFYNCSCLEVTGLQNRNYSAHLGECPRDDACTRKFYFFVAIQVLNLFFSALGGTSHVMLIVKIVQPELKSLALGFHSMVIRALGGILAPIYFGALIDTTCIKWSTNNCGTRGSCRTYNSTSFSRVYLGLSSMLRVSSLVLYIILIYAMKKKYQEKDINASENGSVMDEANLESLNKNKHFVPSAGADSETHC
- ASSAY: OATP assay in CHO-OATP1B1 cells;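 note: inhibition of probe substrate uptake into the cells, ten minutes exposure, accumulated substrate read by fluorescence once cells were lysed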
Starred links: 1 amine or outer side, 2 acyl side, 3 side chain; linkers in the order of their positions; H or OH if unused. Non-standard residues stand in square brackets, D forms with d. Residues, ends and D or L forms follow the SMILES beside them. X32 = C[C@H](CN1CC2(COC2)C1)[C@@H](C(=O)[*:2])N(C)[*:1]; X9 = C[C@@H](CN1CCOCC1)[C@@H](C(=O)[*:2])N(C)[*:1]; MeBmt = C/C=C/C[C@@H](C)[C@@H](O)[C@H](NC)C(=O)O; NMeL = CN[C@@H](CC(C)C)C(=O)O; NMeV = CN[C@H](C(=O)O)C(C)C; dNMeA = CN[C@H](C)C(=O)O; Abu = CC[C@H](N)C(=O)O
MEASURE_NAME: pIC50
As a rule, pIC50 stands for the negative log10 of the concentration, concentration in M.

Reported pIC50 ( C/C=C/C[C@@H](C)[C@@H](O)[C@H]1C(=O)N[C@@H](CC)C(=O)N(C)[C@H](C)C(=O)N(C)[C@@H]([C@H](C)CN2CC3(COC3)C2)C(=O)N[C@@H](C(C)C)C(=O)N(C)[C@@H](CC(C)C)C(=O)N[C@@H](C)C(=O)N[C@H](C)C(=O)N(C)[C@@H](CC(C)C)C(=O)N(C)[C@@H](CC(C)C)C(=O)N(C)[C@@H](C(C)C)C(=O)N1C [Compound 2.5.16] (cyclo(A[dA][NMeL][NMeL][NMeV][MeBmt][Abu][dNMeA][X32]V[NMeL])) ) = 5.47

Kindly note the recorded pIC50 for C/C=C/C[C@@H](C)[C@@H](O)[C@H]1C(=O)N[C@@H](CC)C(=O)N(C)[C@H](C)C(=O)N(C)[C@@H]([C@@H](C)CN2CCOCC2)C(=O)N[C@@H](C(C)C)C(=O)N(C)[C@@H](CC(C)C)C(=O)N[C@@H](C)C(=O)N[C@H](C)C(=O)N(C)[C@@H](CC(C)C)C(=O)N(C)[C@@H](CC(C)C)C(=O)N(C)[C@@H](C(C)C)C(=O)N1C [Compound 2.17.1] (cyclo(A[dA][NMeL][NMeL][NMeV][MeBmt][Abu][dNMeA][X9]V[NMeL])) , which is 5.44
